# Tested on: Rhesus Monkeys
# Method Summary: Template bleed times in rhesus monkeys
# Assay type: in vivo, rhesus monkey
# Assay Conditions: 4.0 mg/kg, 1 hr, mean of two animals
Metric: Template Bleed Times, Mean of animals (min)
Give bare numbers, in min.

Form: compound = COc1ccc(NC(=O)c2ccc(C(=N)N(C)C)cc2)c(C(=O)Nc2ccc(Cl)cn2)c1 ; Template Bleed Times, Mean of animals = 2.63

----------
# Test system: Rhesus Monkeys
# Method Summary: Template bleed times in rhesus monkeys
# Type: in vivo, rhesus monkey
# Assay Conditions: 7.5 mg/kg, 2 hr, mean of two animals
Metric: Template Bleed Times, Mean of animals

Record COc1ccc(NC(=O)c2ccc(C(=N)N(C)C)cc2)c(C(=O)Nc2ccc(Cl)cn2)c1 , field Template Bleed Times, Mean of animals: 2.13 min
